Assay protocol: Half-life by the HPLC using a C18 reversed-phase column at pH 7.4(sodium phosphate buffer) and 37 degree C.
Type: ADME
Result type: half-life (days)

Request: Determine its reported half-life: CC(C)COC(=O)OCC(CO)CCn1cnc2cnc(N)nc21 (stereo unspecified)
Result: 17

Request: Determine its reported half-life: CC(C)CCOC(=O)OCC(CO)CCn1cnc2cnc(N)nc21 (stereo unspecified)
Result: 11

a = CCCCOC(=O)OCC(CO)CCn1cnc2cnc(N)nc21 (stereo unspecified)
b = CCCCCOC(=O)OCC(CO)CCn1cnc2cnc(N)nc21 (stereo unspecified)
c = COC(=O)OCC(CO)CCn1cnc2cnc(N)nc21 (stereo unspecified)
d = CC(C)OC(=O)OCC(CO)CCn1cnc2cnc(N)nc21 (stereo unspecified)
Request: Sort the compounds on half-life; start with the lowest figure. Enter labels, ranked according to the request.
Result: c, b, a, d

* * *

Assay protocol: Half-life by the HPLC using a C18 reversed-phase column at pH 1.2 (HC/NaCl buffer) and 37 degree C.
Type: ADME
Assay conditions: HCl/NaCl buffer
Result type: half-life (days)

Request: Determine its reported half-life: CCOC(=O)OCC(CO)CCn1cnc2cnc(N)nc21 (stereo not drawn)
Result: 35

Request: Determine its reported half-life: CC(C)CCOC(=O)OCC(CO)CCn1cnc2cnc(N)nc21 (stereo not drawn)
Result: 24

Request: Determine its reported half-life: CCCCOC(=O)OCC(CO)CCn1cnc2cnc(N)nc21 (stereo not drawn)
Result: 29

Request: Determine its reported half-life: COC(=O)OCC(CO)CCn1cnc2cnc(N)nc21 (stereo not drawn)
Result: 23

Request: Determine its reported half-life: CCCOC(=O)OCC(CO)CCn1cnc2cnc(N)nc21 (stereo not drawn)
Result: 29

1 = CCCCCOC(=O)OCC(CO)CCn1cnc2cnc(N)nc21 (stereo not drawn)
2 = CC(C)OC(=O)OCC(CO)CCn1cnc2cnc(N)nc21 (stereo not drawn)
Request: Min half-life? 1 | 2 Lab log: write the label of the selected item as the result.
Result: 1
(1: 25 days, 2: 88 days)

* * *

Assay protocol: Half-life by the HPLC using a C18 reversed-phase column at pH 6.0 (sodium phosphate buffer) and 37 degree C.
Assay type: ADME
Result type: half-life (days)

// solved cases for half-life follow
Request: Determine its reported half-life: CCCCOC(=O)OCC(CO)CCn1cnc2cnc(N)nc21 (centres undefined)
Result: 74

Request: Determine its reported half-life: CC(C)COC(=O)OCC(CO)CCn1cnc2cnc(N)nc21 (centres undefined)
Result: 87

a = CCCOC(=O)OCC(CO)CCn1cnc2cnc(N)nc21 (centres undefined)
b = CCCCCOC(=O)OCC(CO)CCn1cnc2cnc(N)nc21 (centres undefined)
Request: Min half-life? a | b Lab log: write the label of the selected item as the result.
Result: b
(b: 17 days, a: 89 days)

A = CCOC(=O)OCC(CO)CCn1cnc2cnc(N)nc21 (centres undefined)
B = CC(C)CCOC(=O)OCC(CO)CCn1cnc2cnc(N)nc21 (centres undefined)
Request: Min half-life? A | B Lab log: write the label of the selected item as the result.
Result: B

I = COC(=O)OCC(CO)CCn1cnc2cnc(N)nc21 (centres undefined)
II = Nc1ncc2ncn(CCC3COC(=O)OC3)c2n1
Request: Min half-life? I | II Lab log: write the label of the selected item as the result.
Result: II
(II: 2.6 days, I: 18 days)

* * *

Organism: Mus musculus
Assay protocol: The total amount of penciclovir recovered in the urine over a 48-h period was determined by HPLC using a C18 reversed-phase column in mouse.
Assay type: ADME, organism-based
Assay conditions: in vivo
Result type: Urinary penciclovir recovery over 48 h (% of dose) (%)

Request: Determine its reported Urinary penciclovir recovery over 48 h (% of dose): CCCOC(=O)OCC(CO)CCn1cnc2cnc(N)nc21 (stereo unspecified)
Result: 51

Request: Determine its reported Urinary penciclovir recovery over 48 h (% of dose): CC(C)CCOC(=O)OCC(CO)CCn1cnc2cnc(N)nc21 (stereo unspecified)
Result: 51

Request: Determine its reported Urinary penciclovir recovery over 48 h (% of dose): CC(=O)OCC(CCn1cnc2cnc(N)nc21)COC(C)=O
Result: 48

Request: Determine its reported Urinary penciclovir recovery over 48 h (% of dose): COC(=O)OCC(CO)CCn1cnc2cnc(N)nc21 (stereo unspecified)
Result: 45

Request: Determine its reported Urinary penciclovir recovery over 48 h (% of dose): Nc1nc2c(ncn2CCC(CO)CO)c(=O)[nH]1
Result: 3

a = CC(C)OC(=O)OCC(CO)CCn1cnc2cnc(N)nc21 (stereo unspecified)
b = Nc1ncc2ncn(CCC3COC(=O)OC3)c2n1
Request: Which one would you say has the larger Urinary penciclovir recovery over 48 h (% of dose) value: a , or b ? Lab log: write the label of the selected item as the result.
Result: a
(a: 53%, b: 27%)

* * *

Assay protocol: Half-life by the HPLC using a C18 reversed-phase column at pH 8..0(sodium phosphate buffer) and 37 degree C.
Type: ADME
Result type: half-life (h)

A = CCOC(=O)OCC(CO)CCn1cnc2cnc(N)nc21 (centres undefined)
B = Nc1ncc2ncn(CCC3COC(=O)OC3)c2n1
C = COC(=O)OCC(CO)CCn1cnc2cnc(N)nc21 (centres undefined)
D = CC(C)COC(=O)OCC(CO)CCn1cnc2cnc(N)nc21 (centres undefined)
E = CC(C)OC(=O)OCC(CO)CCn1cnc2cnc(N)nc21 (centres undefined)
Request: Ascending by half-life, please. Enter labels, ranked according to the request.
Result: B, C, A, D, E

a = CCCOC(=O)OCC(CO)CCn1cnc2cnc(N)nc21 (centres undefined)
b = CC(C)CCOC(=O)OCC(CO)CCn1cnc2cnc(N)nc21 (centres undefined)
Request: Min half-life? a | b Lab log: write the label of the selected item as the result.
Result: a

* * *

Assay protocol: Solubility at 20 degree C was determined by the comparison of th UV absorbance of the saturated solution of each compound at 290 nm with that of the standard curve.
Result type: solubility at 0.29 µM (mg/mL)

// solved cases for solubility at 0.29 µM follow
Request: Determine its reported solubility at 0.29 µM: CC(C)COC(=O)OCC(CO)CCn1cnc2cnc(N)nc21 (stereo not drawn)
Result: 1.5

Request: Determine its reported solubility at 0.29 µM: CCCOC(=O)OCC(CO)CCn1cnc2cnc(N)nc21 (stereo not drawn)
Result: 68

Request: Determine its reported solubility at 0.29 µM: CC(C)OC(=O)OCC(CO)CCn1cnc2cnc(N)nc21 (stereo not drawn)
Result: 139

Request: Determine its reported solubility at 0.29 µM: CCCCCOC(=O)OCC(CO)CCn1cnc2cnc(N)nc21 (stereo not drawn)
Result: 4.2

Request: Determine its reported solubility at 0.29 µM: CCOC(=O)OCC(CO)CCn1cnc2cnc(N)nc21 (stereo not drawn)
Result: 20

1 = CCCCOC(=O)OCC(CO)CCn1cnc2cnc(N)nc21 (stereo not drawn)
2 = CC(C)CCOC(=O)OCC(CO)CCn1cnc2cnc(N)nc21 (stereo not drawn)
Request: Which one would you say has the larger solubility at 0.29 µM value: 1 , or 2 ? Lab log: write the label of the selected item as the result.
Result: 1

* * *

Quick reference for pEC50 among some molecules
Tested on: Human alphaherpesvirus 1
Assay protocol: Compound was tested for in vitro antiviral activity against herpes viruses of type 1 (HSV-1,KOS strain) (concentration required to reduce the OD value by 50% of the virus infected control)
Format: functional, organism-based
pEC50: −log10 of the molar value.

// solved cases for pEC50 follow
Request: Determine its reported pEC50: Nc1ncc2ncn(CCC3COC(=O)OC3)c2n1
Result: < 3.90

Request: Determine its reported pEC50: CCCCOC(=O)OCC(CO)CCn1cnc2cnc(N)nc21 (stereo unspecified)
Result: < 3.90

Request: Determine its reported pEC50: CC(=O)OCC(CCn1cnc2cnc(N)nc21)COC(C)=O
Result: < 3.90

Request: Determine its reported pEC50: Nc1nc2c(ncn2CCC(CO)CO)c(=O)[nH]1
Result: 5.06

Request: Determine its reported pEC50: CC(C)COC(=O)OCC(CO)CCn1cnc2cnc(N)nc21 (stereo unspecified)
Result: < 3.90

As a next step, examine the molecule that follows.
Request: Determine its reported pEC50: COC(=O)OCC(CO)CCn1cnc2cnc(N)nc21 (stereo unspecified)
Result: < 3.90

* * *

Species: Rattus norvegicus
Assay protocol: The total amount of penciclovir recovered in the urine over a 48-h period was determined by HPLC using a C18 reversed-phase column in rat.
Format: ADME, organism-based
Assay conditions: in vivo
Result type: urinary penciclovir recovery, % of dose (%)

Request: Determine its reported urinary penciclovir recovery, % of dose: CC(=O)OCC(CCn1cnc2cnc(N)nc21)COC(C)=O [FAMCICLOVIR]
Result: 40

Request: Determine its reported urinary penciclovir recovery, % of dose: CCOC(=O)OCC(CO)CCn1cnc2cnc(N)nc21 (stereo not given)
Result: 40

Request: Determine its reported urinary penciclovir recovery, % of dose: CCCCOC(=O)OCC(CO)CCn1cnc2cnc(N)nc21 (stereo not given)
Result: 41

Request: Determine its reported urinary penciclovir recovery, % of dose: CCCOC(=O)OCC(CO)CCn1cnc2cnc(N)nc21 (stereo not given)
Result: 34

Request: Determine its reported urinary penciclovir recovery, % of dose: COC(=O)OCC(CO)CCn1cnc2cnc(N)nc21 (stereo not given)
Result: 39
